Data origin: PubChem BioAssay AID179

Overview of recorded EC50 for various compounds
- Tested on: CEM cells HIV-1 protection, formazan growth assay
- testProtocol: NCI AIDS Antiviral Assay
- Description: The ability of compounds to protect human CEM cells from HIV-1 infection is measured as a screen for new compounds capable of inhibiting the HIV virus. Five concentrations of drug were tested on uninfected and infected cells and cell growth was measured using a soluble formazan assay. […] Compounds that provided at least 50% protection were retested. Compounds that provided at least 50% protection on retest were listed as moderately active. […]
reportedMetric: EC50

>>> print(df.to_string())
                                   compound                                testsystem  reportedmetric  measurement
0  CN1CC2=C(OC(N)=C(C#N)C2c2cccs2)/C(=C/c2cccs2)C1 (stereo not given)  CEM cells HIV-1 protection, formazan growth assay            EC50     > 200 µM
1  CC12CCC3(C1)[C@H](CC2=O)C[C@@H](OC(=O)c1ccccc1)C1C(C)(CO)CCC[C@@]13C (stereo not given in full)  CEM cells HIV-1 protection, formazan growth assay            EC50    > 44.7 µM
2  CCOC(=O)C(CC)c1cc2n(c(=O)c1C#N)CCC21OCCO1 (stereo not given)  CEM cells HIV-1 protection, formazan growth assay            EC50     > 200 µM
3  O=C(O)[C@H](CSSC[C@@H](C(=O)O)N1C(=O)c2ccccc2C1=O)N1C(=O)c2ccccc2C1=O  CEM cells HIV-1 protection, formazan growth assay            EC50     > 200 µM
4  CC12CC(Sc3ccccc3N1)c1ccccc1O2 (stereo not given)  CEM cells HIV-1 protection, formazan growth assay            EC50     > 132 µM

----------
Recorded pEC50 values for a group of compounds are listed next.
- Tested on: CEM cells HIV-1 protection, formazan growth assay
- testProtocol: NCI AIDS Antiviral Assay
- Description: The ability of compounds to protect human CEM cells from HIV-1 infection is measured as a screen for new compounds capable of inhibiting the HIV virus. Five concentrations of drug were tested on uninfected and infected cells and cell growth was measured using a soluble formazan assay. […] Compounds that provided at least 50% protection were retested. Compounds that provided at least 50% protection on retest were listed as moderately active. […]
pEC50: −log10 of the molar value.
reportedMetric: pEC50

                                   compound  measurement
0  Cc1cc2c(=O)cc(-c3ccccc3Cl)oc2c(C(=O)O)c1C       < 3.70
1             COc1ccc(/C=N/N=C(\N)NO)c(O)c1       < 3.70
2  COC(=O)CC1NC(=O)[C@@H]1C(C)O (stereo partly specified)       < 3.60
3  CC(CN1NC12CCCC2)N1NC12CCCC2 (stereo unspecified)       < 3.70
4  CC#CCCC1(CC)CCCN(C(=O)OC(C)C)C1OCC (stereo unspecified)       < 4.49
5  Cc1ccccc1C(C#N)/C(=N/NC(=O)C(=O)NN)C(=O)Nc1cccc(C(F)(F)F)c1 (stereo unspecified)       < 3.68

----------
- Tested on: CEM cells HIV-1 protection, formazan growth assay
- testProtocol: NCI AIDS Antiviral Assay
The source made the active and inactive calls.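 The calls were made as follows: active = compounds giving half or more protection of infected cells from virus-caused growth loss, again on retest; inactive = the rest.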
reportedMetric: outcome

>>> df
                                   compound                                testsystem  reportedmetric  measurement
0          COc1ccc2c(c1)C1=C(CC2)C(=O)OC1=O  CEM cells HIV-1 protection, formazan growth assay         outcome     inactive
1  Clc1ccc(NC(Nc2ccc(Cl)cc2)C(Cl)(Cl)Cl)cc1  CEM cells HIV-1 protection, formazan growth assay         outcome     inactive
2                            S=C(S)N1CCNCC1  CEM cells HIV-1 protection, formazan growth assay         outcome     inactive
3                     CCCCCCCCCCNC(=S)OCCCC  CEM cells HIV-1 protection, formazan growth assay         outcome     inactive
4  C[C@H]1C(=O)c2c(cc(O)c(C3OC(CO)C(O)C(O)C3O)c2O)OC1c1ccc(O)c(O)c1 (some centres not stated)  CEM cells HIV-1 protection, formazan growth assay         outcome     inactive
5  CC12CCC(=O)[C@@]1(C)CCCC2=O (some centres not stated)  CEM cells HIV-1 protection, formazan growth assay         outcome     inactive
6  Clc1ccccc1C1SCc2nc3ccccc3n21 (configuration not stated)  CEM cells HIV-1 protection, formazan growth assay         outcome     inactive

----------
- Tested on: CEM cells HIV-1 protection, formazan growth assay
- testProtocol: NCI AIDS Antiviral Assay
reportedMetric: EC50

molecule	reportedMetric	measurement
O=[N+]([O-])c1ccc(Cl)c(C=NC23CC4CC(CC(C4)C2)C3)c1	EC50	> 200 µM
O=C(/C=C/c1ccccc1)NC1C=Nc2ccccc2NC1=O (configuration not stated)	EC50	148 µM
CC(C)(C)OC(=O)c1cc(NC(=S)c2ccccc2)ccc1Cl	EC50	0.363 µM
Cc1n[nH]c(=O)n1N1C(=O)CCCC1=O	EC50	> 200 µM
CCOC(=O)Cn1c(=O)[nH]c(=O)c2c1ncn2Cc1ccccc1	EC50	> 550 µM
COc1ccc(C(=O)c2ccc(OC)c(S(=O)(=O)O)c2)cc1S(=O)(=O)O	EC50	> 575 µM
Cc1cc(=O)oc2c(O)c(O)ccc12	EC50	> 263 µM
Cc1cn([C@H]2C[C@@H]3[C@@H](COC(CCN=[N+]=[N-])N3O)O2)c(=O)[nH]c1=O (some centres not stated)	EC50	72.4 µM
Cc1nc2ccccc2n1COC(Cn1ccnc1)c1ccc(Cl)cc1Cl (configuration not stated)	EC50	> 200 µM
NC(N)=NS(=O)(=O)c1ccc(NC(=O)c2ccc(Cl)c3c(Nc4ccc(S(=O)(=O)N=C(N)N)cc4)c4ccccc4nc23)cc1	EC50	> 28.2 µM
O=c1c(SCc2ccccc2F)c(SCc2ccccc2F)cnn1-c1ccccc1	EC50	> 11.5 µM
Cc1nc(C(N)=S)sc1C(=O)CC(=O)C(=O)Nc1nc2ccccc2[nH]1	EC50	> 93.3 µM
CC(=O)c1c(-c2ccco2)c(C#N)c(=S)n(C2OC(CO)C(O)C(O)C2O)c1-c1ccccc1 (configuration not stated)	EC50	> 200 µM
CN1CCN(C(=S)N(C)C(=O)c2cccs2)CC1	EC50	> 891 µM
NC(N)=NS(=O)(=O)c1ccc(Nc2c3ccccc3nc3c(C(=O)N4CCN(CCO)CC4)cccc23)cc1	EC50	> 40.7 µM
Nc1c(N=Nc2ccc(/C=C/c3ccc(N=Nc4cc(S(=O)(=O)O)c5cccc(S(=O)(=O)O)c5c4N)cc3S(=O)(=O)O)c(S(=O)(=O)O)c2)cc(S(=O)(=O)O)c2cccc(S(=O)(=O)O)c12	EC50	8.71 µM
CC1OC(n2cc(C(F)(F)F)c(=O)[nH]c2=O)C=CC1=O (configuration not stated)	EC50	> 447 µM
C=CCP(=O)(c1ccccc1)c1ccccc1	EC50	0.0631 µM
CCOC(=O)CC(=O)Sc1ccccc1	EC50	> 251 µM
NC12CC3CC(CC(C3)C1)C2	EC50	> 200 µM
c1ccc2c(c1)c1c(n2CCOCCN2CCOCC2)CCCC1	EC50	> 200 µM
CC1CN=C(Nc2cccc(C(F)(F)F)c2)S1 (configuration not stated)	EC50	> 200 µM

----------
- Tested on: CEM cells HIV-1 protection, formazan growth assay
- testProtocol: NCI AIDS Antiviral Assay
reportedMetric: EC50

In [3]: df
Out[3]:
                                   compound                                testsystem  measurement
0  N#Cc1ccc(NC(=O)C(CC(=O)OCc2ccccc2)NC(=O)OCc2ccccc2)cc1 (stereo unspecified)  CEM cells HIV-1 protection, formazan growth assay     > 200 µM
1          COc1cccc(/C=C2\CCc3ccccc3C2=O)c1  CEM cells HIV-1 protection, formazan growth assay    > 14.5 µM
2      CC(C)C(/C=C/c1ccc(Cl)cc1)=N\NC(=S)NN  CEM cells HIV-1 protection, formazan growth assay     > 200 µM
3                   COc1ccc2c(C)cc(=O)oc2c1  CEM cells HIV-1 protection, formazan growth assay     > 200 µM
4  C(=C\c1ccccc1)/COc1ccccc1C(N1CCOCC1)n1nc2ccccc2n1 (stereo unspecified)  CEM cells HIV-1 protection, formazan growth assay     > 200 µM
5          N/C(=N\N=C\c1ccc(C(F)(F)F)cc1)NO  CEM cells HIV-1 protection, formazan growth assay     > 427 µM
